# Test system: MALME-3M melanoma
# Test Protocol: NCI tumour cell line growth inhibition, 48 h; in the data active means GI50 below about 0.43 µM; inactive means the rest
Just give me one of these, please: active, inactive

| Compound | Cat |
| --- | --- |
| CCOC(=O)c1ccc(N(C=O)CCC(=O)CCl)cc1 | inactive |
| NC(=O)c1sc(-n2cnc3ccc(C(F)(F)F)cc32)cc1OCc1ccccc1Br | inactive |
| CCCCCCCCCCC[C@@H](C[C@H]1OC(=O)[C@H]1CCCCCC)OC(=O)[C@@H](CC(C)C)NC=O | inactive |
| OCCn1cc(-c2cnc3nnn(Cc4ccc5ncccc5c4)c3n2)cn1 | inactive |
| O=C(Nc1ccc(Oc2ccc(NC(=O)Nc3ccc([N+](=O)[O-])cc3)cc2)cc1)Nc1ccc([N+](=O)[O-])cc1 | inactive |
| O=c1c2c(=NCCN3CCCC3)cc3c(=O)n(CCCN4CCOCC4)c(=O)c4ccc(c(O)n1CCCN1CCOCC1)c2c4-3 | active |
| COc1ccc2c(c1)[nH]c(=O)c1c3cc(OC)c(OC)cc3cn21 | inactive |
| C=C(C)[C@@H]1CC[C@]2(C(=O)O)CC[C@]3(C)[C@H](CC[C@@H]4[C@@]5(C)C/C(=C/c6cccc(I)c6)C(=O)C(C)(C)[C@@H]5CC[C@]43C)[C@@H]12 | inactive |

Assay outcome for CCCCCCCCNC(C)C(O)c1ccc(SC(C)C)cc1 (stereo unspecified) : what was it? inactive

Outcome? O=C(c1ccco1)c1nc2cc(C(F)(F)F)ccc2[n+]([O-])c1C(F)(F)F inactive

Which outcome was entered for the compound CCOC(=O)Cn1c(-c2nonc2NC(=O)c2ccccc2F)nc2ccccc21 in this test? inactive

Hey, what did the test say about COc1ccc(C(=O)/C=C/c2cc(-c3ccc4c(c3)OCO4)n[nH]2)cc1OC ? inactive
